Source of measurements: patent US20050032873A1

Target: 5-HT1A receptor (Homo sapiens)
Assay: 5-HT1A receptor affinity: displacement of [3H] 8-OH-DPAT
Assay type: binding
Set-up: expressed in transfected cells
Settings: displacement of [3H] 8-OH-DPAT; CHO cells stably transfected with human 5-HT1A receptors; read-out: 5-HT1A Receptor Affinity Ki
pKi: −log10 of the molar value.
Reported values of pKi for individual entries
recorded.endpoint: pKi

1) CCN(CCCc1c[nH]c2ccc(F)cc12)C1COc2cccc(C(N)=O)c2C1 (stereo not shown) = 8.57
2) CCN(CCCc1csc2ccccc12)C1COc2cccc(OC)c2C1 (stereo not shown) = 8.43
3) CCCN(CCC(O)c1csc2ccc(F)cc12)C1COc2c(F)ccc(C(N)=O)c2C1 (stereo not shown) = 9.06
4) CCN(CC1CCc2[nH]c3ccc(F)cc3c2C1)[C@H]1COc2c(F)ccc(C(N)=O)c2C1 (single isomer, unassigned; (+)) [Compound 176b] = 7.61
5) CNC(=O)c1ccc(F)c2c1CC(N(CCCc1c[nH]c3ccc(F)cc13)CC1CC1)CO2 (stereo not shown) = 8.64
6) NC(=O)c1ccc(F)c2c1CC(N(CCCc1c[nH]c3c(F)cc(F)cc13)C1CCC1)CO2 (single isomer, unassigned; (-)) [Compound 9a] = 8.76
7) NC(=O)c1cccc2c1CC(N(CCCc1c[nH]c3ccc(F)cc13)CC1CC1)CO2 (stereo not shown) = 9.48

###

Molecular target: serotonin transporter (Rattus norvegicus, UniProt P31652)
Construct: displace ^3H-paroxetine from male rat cortical membranes; from tissue; host or cells: male rat cortical membranes
Sequence (P31652 whole entry): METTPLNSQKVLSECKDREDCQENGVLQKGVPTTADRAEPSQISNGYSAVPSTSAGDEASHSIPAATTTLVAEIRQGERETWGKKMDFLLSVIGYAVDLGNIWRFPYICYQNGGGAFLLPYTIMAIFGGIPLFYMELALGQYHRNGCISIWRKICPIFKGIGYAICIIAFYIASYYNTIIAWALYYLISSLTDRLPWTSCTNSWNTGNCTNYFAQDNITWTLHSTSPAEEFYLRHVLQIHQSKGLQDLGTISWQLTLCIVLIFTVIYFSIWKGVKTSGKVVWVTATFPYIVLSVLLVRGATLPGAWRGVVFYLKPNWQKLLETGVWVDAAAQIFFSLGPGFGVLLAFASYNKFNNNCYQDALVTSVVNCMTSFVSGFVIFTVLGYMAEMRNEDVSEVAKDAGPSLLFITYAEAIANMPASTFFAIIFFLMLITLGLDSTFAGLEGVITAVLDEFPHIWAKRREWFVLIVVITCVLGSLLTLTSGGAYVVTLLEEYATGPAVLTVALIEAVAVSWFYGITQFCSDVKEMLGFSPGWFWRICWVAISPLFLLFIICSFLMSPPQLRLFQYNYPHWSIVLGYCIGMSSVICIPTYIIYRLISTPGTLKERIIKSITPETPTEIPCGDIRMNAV
Assay: 5-HT transporter affinity: displacement of 3H-paroxetine from male rat cortical membranes
Assay type: binding
Conditions: 5-HT Transporter Affinity Ki (nM), displacement of 3H-paroxetine; male rat cortical membranes
recorded.endpoint: Ki (nM)

1. COc1cccc2c1CC(N[C@H]1CC[C@H](c3c[nH]c4ccc(C#N)cc43)CC1)CO2 (relative stereo) [Compound 180b] = 2.46
2. COc1cccc2c1CC(N[C@H]1CC[C@@H](c3c[nH]c4ccc(C#N)cc43)CC1)CO2 (relative stereo) [Compound 180a] = 13
3. CCN(CCc1c[nH]c2ccc(F)cc12)C1CCc2cccc(OC)c2C1 (centres unmarked) = 6.5
4. CCN(CCc1c[nH]c2ccc(F)cc12)C1COc2c(F)ccc(C(=O)NC)c2C1 (centres unmarked) = 35.4
5. CCN(CCc1c[nH]c2ccc(F)cc12)C1COc2c(F)ccc(C(N)=O)c2C1 (centres unmarked) = 52

###

// values below are reported Emax
Molecular target: UniProt:P08908
Sequence (P08908 1-422): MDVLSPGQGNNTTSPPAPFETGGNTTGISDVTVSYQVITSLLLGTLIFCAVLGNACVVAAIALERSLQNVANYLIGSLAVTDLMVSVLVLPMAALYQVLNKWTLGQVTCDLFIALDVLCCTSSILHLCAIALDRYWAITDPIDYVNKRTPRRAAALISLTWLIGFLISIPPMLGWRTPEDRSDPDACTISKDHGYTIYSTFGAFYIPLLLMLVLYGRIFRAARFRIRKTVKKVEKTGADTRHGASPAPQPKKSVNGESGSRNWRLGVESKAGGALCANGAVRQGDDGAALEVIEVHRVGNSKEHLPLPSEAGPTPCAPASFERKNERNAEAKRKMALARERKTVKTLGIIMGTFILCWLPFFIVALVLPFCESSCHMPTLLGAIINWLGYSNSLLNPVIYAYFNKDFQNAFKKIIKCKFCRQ
Test: cAMP accumulation assay, 5-HT1A function
Assay type: cell-based
Settings: in brackets after EC50 or IC50; read-out: 5-HT1A Function cAMP (Emax)
recorded.endpoint: Emax (%)

1) CCN(CCCCc1coc2ccccc12)C1COc2cccc(OC)c2C1 (centres unmarked) = 100
2) NC(=O)c1ccc(F)c2c1CC(N(CCCCn1ccc3c(F)cccc31)CC1CC1)CO2 (centres unmarked) = 72
3) COc1cccc2c(CCCCN(CC3CC3)C3COc4c(F)ccc(C(N)=O)c4C3)coc12 (centres unmarked) = 0
4) CCCCN(CCCc1coc2c(OC)cccc12)C1COc2c(F)ccc(C(N)=O)c2C1 (centres unmarked) = 0
5) CCN(CCc1coc2c(OC)cccc12)C1COc2c(F)ccc(C(N)=O)c2C1 (centres unmarked) = 0
6) CCCN(CCCCn1ccc2ccc(F)cc21)C1COc2c(F)ccc(C(N)=O)c2C1 (centres unmarked) = 81
7) CNC(=O)c1ccc(F)c2c1C[C@@H](N(CCCCc1c[nH]c3ccc(F)cc13)C1CCC1)CO2 [Compound 145b] = 0
8) N#Cc1ccc2[nH]cc(CCCN(C3CCC3)[C@@H]3COc4c(F)ccc(C(N)=O)c4C3)c2c1 [Compound 97a] = 0
9) NC(=O)c1ccc(F)c2c1CC(N(CCCc1c[nH]c3ccc(Cl)cc13)CC1CC1)CO2 (centres unmarked) = 0
10) CNC(=O)c1ccc(F)c2c1CC(N(CCCCc1c[nH]c3ccc(F)cc13)CC1CC1)CO2 (centres unmarked) = 0
11) NC(=O)c1ccc(F)c2c1CC(N(CCCc1c[nH]c3ccc(Cl)cc13)C1CCC1)CO2 (centres unmarked) = 0
12) CCCN(CCCc1c[nH]c2ccc(F)cc12)[C@H]1COc2c(F)ccc(OC)c2C1 = 86
13) NC(=O)c1ccc(F)c2c1CC(N(CCCc1c[nH]c3cc(F)ccc13)CC1CC1)CO2 (centres unmarked) [Compound 52a] = 0
14) CCCN(CCCc1c[nH]c2ccc(F)cc12)C1COc2c(F)ccc(C(N)=O)c2C1 (centres unmarked) [Compound 2] = 83.5
15) CCCN(CCCc1c[nH]c2ccccc12)C1CCc2cccc(OC)c2C1 (centres unmarked) = 98
16) COc1cccc2c1CC(N(CCCc1cn(C)c3ccc(F)cc13)CC1CC1)CO2 (centres unmarked) = 97.5
17) COc1cccc2c(CCCNC3COc4c(F)ccc(C(N)=O)c4C3)coc12 (centres unmarked) = 0

###

Target: 5-HT1A receptor (Homo sapiens)
Test: 5-HT1A receptor affinity: displacement of [3H] 8-OH-DPAT
Assay type: binding
Set-up: expressed in transfected cells
Settings: displacement of [3H] 8-OH-DPAT; CHO cells stably transfected with human 5-HT1A receptors; read-out: 5-HT1A Receptor Affinity Ki
One threshold, 50 nM, splits the recorded Ki values: lower ones are True, equal or higher ones are False.

1. CCCN(C(C)CCc1c[nH]c2ccc(C#N)cc12)C1COc2c(F)ccc(C(N)=O)c2C1 (single isomer, unassigned) [Compound 13c] = False
2. COC(=O)c1ccc(F)c2c1CC(N(CCCc1c[nH]c3ccc(F)cc13)C1CCC1)CO2 (stereo not shown) [Compound 11] = False
3. COC(=O)c1ccc(F)c2c1CC(N(CCCCc1c[nH]c3ccc(F)cc13)C1CCC1)CO2 (stereo not shown) = False
4. NC(=O)c1ccc(F)c2c1CC(N(CCCCc1c[nH]c3ccc(F)cc13)C1CCC1)CO2 (stereo not shown) = True
5. NC(=O)c1ccc(F)c2c1CC(N(CCCc1c[nH]c3ccc(Cl)cc13)CC1CC1)CO2 (stereo not shown) = True
6. CCCN(CCCc1c[nH]c2ccc(Cl)cc12)C1COc2c(F)ccc(C(N)=O)c2C1 (stereo not shown) = True

###

Molecular target: 5-HT1A receptor (Homo sapiens, UniProt P08908)
Sequence (P08908 1-422): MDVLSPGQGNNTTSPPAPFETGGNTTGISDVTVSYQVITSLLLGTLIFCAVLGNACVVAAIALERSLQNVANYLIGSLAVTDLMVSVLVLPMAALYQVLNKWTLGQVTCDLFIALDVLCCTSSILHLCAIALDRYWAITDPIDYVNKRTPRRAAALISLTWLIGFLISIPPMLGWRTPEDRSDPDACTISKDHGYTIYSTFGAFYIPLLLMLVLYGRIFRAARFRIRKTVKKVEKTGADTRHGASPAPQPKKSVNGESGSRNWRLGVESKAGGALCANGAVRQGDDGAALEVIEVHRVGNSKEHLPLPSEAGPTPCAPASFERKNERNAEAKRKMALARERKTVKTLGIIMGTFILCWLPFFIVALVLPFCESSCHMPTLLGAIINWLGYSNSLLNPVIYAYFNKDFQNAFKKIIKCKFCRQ
Test: 5-HT1A receptor affinity: displacement of [3H] 8-OH-DPAT
Type: binding
Set-up: expressed in transfected cells
Conditions: read-out: 5-HT1A Receptor Affinity, % @ 1 μM
inhibition at 1 µM overview
recorded.endpoint: inhibition at 1 µM

1) CNC(=O)c1ccc(F)c2c1CC(NCCc1c[nH]c3ccc(F)cc13)CO2 (stereo not shown) = 0%
2) O=C(NC1CCCC1)c1ccc(F)c2c1CC(N(CCCc1c[nH]c3ccc(F)cc13)C1CCC1)CO2 (stereo not shown) = 41%
3) CCCCNC(=O)c1ccc(F)c2c1CC(N(CCCc1c[nH]c3ccc(F)cc13)C1CCC1)CO2 (stereo not shown) = 40%
4) NC(=O)c1ccc(F)c2c1CC(N(CCCc1c[nH]c3ccc(F)cc13)Cc1ccccc1)CO2 (stereo not shown) = 20%
5) O=C(Nc1ccccc1)c1ccc(F)c2c1CC(N(CCCc1c[nH]c3ccc(F)cc13)C1CCC1)CO2 (stereo not shown) = 36%
6) COc1cccc2c1CC(N[C@H]1CC[C@@H](c3c[nH]c4ccc(F)cc43)CC1)CO2 (relative stereo) [Compound 181a] = 37%
7) O=C(NCc1ccccc1)c1ccc(F)c2c1CC(N(CCCc1c[nH]c3ccc(F)cc13)C1CCC1)CO2 (stereo not shown) = 3%
